molecular target: Dual specificity protein kinase CLK2 (Homo sapiens); settings: at 1 µM;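 note: reported values are mean percent inhibition of CLK2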

>  <smiles.structure>
NC(=O)c1ccc(-c2nc(-c3ccccn3)c(-c3ccc4c(c3)OCO4)[nH]2)cc1

>  <inhibition>
1.07%

$$$$
>  <smiles.structure>
Nc1nc(-c2ccccn2)c(-c2ccc3ncccc3n2)s1

>  <inhibition>
0.69%

$$$$
>  <smiles.structure>
Cn1cc(C=C2C(=O)Nc3cccnc32)c2ccccc21

>  <inhibition>
13.7%

$$$$

---

inhibition for assorted molecules
biological target: Platelet-derived growth factor receptor alpha (Homo sapiens) (UniProt P16234); settings: at 1 µM;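 note: values are mean percent inhibition of PDGFRA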
Sequence (P16234 whole entry): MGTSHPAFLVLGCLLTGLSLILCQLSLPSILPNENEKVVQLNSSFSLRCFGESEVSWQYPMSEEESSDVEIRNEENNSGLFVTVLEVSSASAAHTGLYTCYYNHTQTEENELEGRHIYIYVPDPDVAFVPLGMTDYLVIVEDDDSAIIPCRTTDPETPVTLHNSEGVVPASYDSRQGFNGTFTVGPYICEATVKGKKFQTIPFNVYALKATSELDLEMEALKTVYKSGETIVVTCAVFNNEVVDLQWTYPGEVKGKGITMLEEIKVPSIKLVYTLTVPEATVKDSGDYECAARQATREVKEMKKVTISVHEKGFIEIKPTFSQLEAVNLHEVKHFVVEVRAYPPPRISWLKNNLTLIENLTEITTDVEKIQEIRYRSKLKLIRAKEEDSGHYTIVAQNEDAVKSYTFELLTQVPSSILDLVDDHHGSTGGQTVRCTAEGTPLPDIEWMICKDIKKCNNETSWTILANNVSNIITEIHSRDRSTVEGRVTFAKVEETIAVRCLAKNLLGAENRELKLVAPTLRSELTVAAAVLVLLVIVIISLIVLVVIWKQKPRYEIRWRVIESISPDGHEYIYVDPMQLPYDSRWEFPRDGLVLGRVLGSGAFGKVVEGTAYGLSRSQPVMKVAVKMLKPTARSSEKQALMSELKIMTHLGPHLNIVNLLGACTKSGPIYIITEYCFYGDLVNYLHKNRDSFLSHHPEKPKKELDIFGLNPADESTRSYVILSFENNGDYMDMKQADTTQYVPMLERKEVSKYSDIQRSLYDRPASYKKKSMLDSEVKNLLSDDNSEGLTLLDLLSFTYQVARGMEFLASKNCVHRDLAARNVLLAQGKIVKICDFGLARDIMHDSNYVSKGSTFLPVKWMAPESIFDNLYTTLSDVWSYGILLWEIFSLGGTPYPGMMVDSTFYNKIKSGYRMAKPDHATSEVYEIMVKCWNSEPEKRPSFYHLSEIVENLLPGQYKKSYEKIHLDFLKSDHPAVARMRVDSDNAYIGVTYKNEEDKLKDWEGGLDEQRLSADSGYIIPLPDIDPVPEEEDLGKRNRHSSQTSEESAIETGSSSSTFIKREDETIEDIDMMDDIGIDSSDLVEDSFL

>  <molecule>
COc1cc2ncn(-c3cc(O[C@H](C)c4ccccc4Cl)c(C(N)=O)s3)c2cc1OC

>  <inhibition / %>
100

$$$$
>  <molecule>
CC1=C(C(=O)Nc2ccc3[nH]ncc3c2)C(c2ccc(Cl)c(Cl)c2)CC(=O)N1 (configuration not stated)

>  <inhibition / %>
8.15

$$$$
>  <molecule>
Cc1cccc(-c2n[nH]cc2-c2ccc3ncccc3n2)n1

>  <inhibition / %>
55.3

$$$$
>  <molecule>
NS(=O)(=O)c1cccc(-c2ccc3c(NC(=O)C4CC4)n[nH]c3c2)c1

>  <inhibition / %>
9.75

$$$$
>  <molecule>
COc1ccc(-c2nn3ncccc3c2-c2ccnc(Nc3ccc(Cl)c(C(F)(F)F)c3)n2)cc1

>  <inhibition / %>
7.86

$$$$
>  <molecule>
COc1ccc2cc(-c3c(-c4ccncc4)nc(-c4ccc([S+](C)[O-])cc4)n3C)ccc2c1 (configuration not stated)

>  <inhibition / %>
10

$$$$
>  <molecule>
CS(=O)(=O)CCNCc1nc(-c2ccc3ncnc(Nc4ccc(F)c(Cl)c4)c3c2)cs1

>  <inhibition / %>
25.9

$$$$
>  <molecule>
CCn1c(-c2nonc2N)nc2cncc(C(=O)N3CC[C@H](N)C3)c21

>  <inhibition / %>
6.08

$$$$
>  <molecule>
Nc1nc(-c2ccccn2)c(-c2ccc3ncccc3n2)s1

>  <inhibition / %>
11.4

$$$$
>  <molecule>
Fc1cccc(COc2ccc(Nc3ncnc4sc(-c5cccs5)cc34)cc2Cl)c1

>  <inhibition / %>
5.87

$$$$
>  <molecule>
COc1cc2ncn(-c3cc(O[C@@H](C)c4ccccc4Cl)c(C(N)=O)s3)c2cc1OC

>  <inhibition / %>
73.8

$$$$
>  <molecule>
CCn1c(-c2nonc2N)nc2c(N3CCCC3)nccc21

>  <inhibition / %>
6.63

$$$$
>  <molecule>
CS(=O)(=O)CCNCc1ccc(-c2ccc3ncnc(Nc4ccc(OCc5cccc(F)c5)c(C(F)(F)F)c4)c3c2)o1

>  <inhibition / %>
6.52

$$$$
>  <molecule>
[O-][S+]1CCN(Cc2ccc(-c3ccc4ncnc(Nc5ccc(OCc6ccccc6)c(F)c5)c4c3)o2)CC1

>  <inhibition / %>
4.2

$$$$
>  <molecule>
Nc1ncnc2occ(-c3ccc(NC(=O)Nc4cc(C(F)(F)F)cc(C(F)(F)F)c4)cc3)c12

>  <inhibition / %>
79.7

$$$$
>  <molecule>
COc1cc2ncn(-c3cc(OCc4ccccc4C(F)(F)F)c(C(N)=O)s3)c2cc1OC

>  <inhibition / %>
83.5

$$$$
>  <molecule>
Fc1cccc(COc2ccc(Nc3ncnc4cc(-c5ccc[nH]5)sc34)cc2Cl)c1

>  <inhibition / %>
15.6

$$$$
>  <molecule>
CC(C)=Cc1cccc2c1/C(=N/Nc1ccc(S(N)(=O)=O)cc1)C(=O)N2

>  <inhibition / %>
64.9

$$$$
>  <molecule>
O=C1Nc2ccc(C(=O)c3ccco3)cc2C1=Cc1cc(Cl)c(O)c(Cl)c1

>  <inhibition / %>
26

$$$$
>  <molecule>
O=C1NC(=O)C(N2CCc3ccccc32)=C1c1ccc(Cl)cc1

>  <inhibition / %>
15.4

$$$$
>  <molecule>
COc1ccccc1Nc1ncc(-c2ccccc2)o1

>  <inhibition / %>
47.5

$$$$
>  <molecule>
CCn1c(-c2nonc2N)nc2c(C#CC(C)(C)O)nc(CN3CCCC3)cc21

>  <inhibition / %>
13.1

$$$$
>  <molecule>
COc1cccc(-n2ncc3c(N/N=C/c4cccc(F)c4)ncnc32)c1

>  <inhibition / %>
49.5

$$$$
>  <molecule>
Cc1ccc(C(=O)NC2CCCCC2)cc1-c1ccc(C(=O)NCC2CC2)cc1

>  <inhibition / %>
12.8

$$$$
>  <molecule>
Cc1nnc(-c2ccc(C)c(-c3ccc(C(=O)Nc4cccc(C#N)c4)cc3)c2)o1

>  <inhibition / %>
15.8

$$$$
>  <molecule>
COc1ccc(-c2ccncc2)cc1C(N)=O

>  <inhibition / %>
15.4

$$$$
>  <molecule>
NCc1ccc(-c2nc(-c3ccc(Cl)c(O)c3)c(-c3ccncc3)[nH]2)cc1

>  <inhibition / %>
25.6

$$$$
